Every entry's value here was drawn from paper PMC13247719.

target-or-test-system: T1, LIN28A Y140A (mouse, UniProt Q8K3Y3 1-209, Y140A)
T1 sequence: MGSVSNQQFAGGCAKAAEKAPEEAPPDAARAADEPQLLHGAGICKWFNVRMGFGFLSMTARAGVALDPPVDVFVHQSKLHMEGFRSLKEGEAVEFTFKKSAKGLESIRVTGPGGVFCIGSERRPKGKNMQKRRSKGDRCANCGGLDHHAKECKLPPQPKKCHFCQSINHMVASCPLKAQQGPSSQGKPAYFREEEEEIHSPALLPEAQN
protocol-notes: SPR
observed-property: pKd
The scale used: pKd is minus the common logarithm of the concentration in molar units.

Query: What value of pKd has been recorded for this entry: GGGGUAGUGAUUUUACCCUGUUUAGGAGAU (structured_RNA) [preE-let-7f-1 biotin]
Reply: 6.39
